IC50 for assorted compounds
- measured_target: Beta-secretase 1 (Homo sapiens, UniProt P56817)
- Sequence (P56817 whole entry): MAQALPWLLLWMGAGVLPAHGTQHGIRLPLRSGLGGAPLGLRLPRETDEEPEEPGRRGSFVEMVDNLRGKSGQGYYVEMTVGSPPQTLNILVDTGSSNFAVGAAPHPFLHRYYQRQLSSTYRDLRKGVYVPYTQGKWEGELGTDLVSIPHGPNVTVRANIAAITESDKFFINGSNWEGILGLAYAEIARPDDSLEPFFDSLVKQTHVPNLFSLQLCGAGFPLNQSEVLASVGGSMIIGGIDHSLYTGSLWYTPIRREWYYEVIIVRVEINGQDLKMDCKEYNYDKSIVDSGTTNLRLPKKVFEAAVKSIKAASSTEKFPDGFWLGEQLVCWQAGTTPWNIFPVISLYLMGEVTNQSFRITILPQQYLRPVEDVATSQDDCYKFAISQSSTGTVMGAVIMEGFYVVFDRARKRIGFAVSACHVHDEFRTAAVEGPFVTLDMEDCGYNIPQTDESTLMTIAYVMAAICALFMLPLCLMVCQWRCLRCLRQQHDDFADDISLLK
- method_notes: Inhibition of BACE1 in human SH-SY5Y cells expressing APP NFEV and wild-type alpha cleavage site assessed as generation of EV40/EV42 by electrochemiluminescence assay
- Type: cell-based

1. CC(C)(C)OC(=O)N(Cc1ccccc1)C[C@H](O)c1cccc(NC(=O)c2cccc3ccccc23)c1
11 µM

## Task Given CC(C)(C)OC(=O)N(Cc1ccccc1)C[C@@H](O)c1cccc(NC(=O)[C@H](NC(=O)OCc2ccccc2)c2ccccc2)c1 , state its recorded IC50.
## Result > 100 µM

###

- measured_target: Beta-secretase 1 (Homo sapiens)
- method_notes: Inhibition of human recombinant BACE1 using [acetyl-C(W8044Eu)-EVNLDAEFK-QSY7] as substrate by TR-FRET assay
- test_conditions: read-out: IC50
IC50 for assorted compounds
Just the number please, in µM, no unit attached.

Reference set, count: 5
1. CC(C)(C)OC(=O)N1CCN(c2cccc(C=O)c2NC(=O)[C@@H](NC(=O)OCc2ccccc2)c2ccccc2)CC1
14.3
2. CC(C)(C)OC(=O)N(C[C@H](O)c1cccc(NC(=O)[C@@H](NC(=O)OCc2ccccc2)c2ccccc2)c1)[C@H](CO)c1ccccc1
9.2
3. CC(C)(C)OC(=O)N1CCN(c2ccc(-c3ccccc3)c3c2NC(=O)[C@H](c2ccccc2)N=C3)CC1
12.8
4. O=C(N[C@H](C(=O)Nc1cccc([C@@H](O)CN[C@H](CO)Cc2ccccc2)c1)c1ccccc1)OCc1ccccc1
7.5
5. CC(C)(C)OC(=O)N(Cc1ccccc1)C[C@@H](O)c1cccc(NC(=O)[C@@H](NC(=O)OCc2ccccc2)c2ccccc2)c1
5.2

## Task Give the reported IC50 for CC(C)(C)OC(=O)N(Cc1ccccc1)C[C@H](O)c1ccc(C(=O)c2ccccc2)c(NC(=O)[C@H](NC(=O)OCc2ccccc2)c2ccccc2)c1 (system: Beta-secretase 1 (Homo sapiens)).
## Result 18.1

## Task Give the reported IC50 for CC(C)(C)OC(=O)N(Cc1ccccc1)C[C@H](O)c1cccc(NC(=O)c2cccc3ccccc23)c1 (system: Beta-secretase 1 (Homo sapiens)).
## Result 4.9

Origin of measurements: ChEMBL document CHEMBL3085758
